- test.system: T1, HAb18G/CD147 on HHCC hepatocellular carcinoma cells (human, UniProt P35613 140-385, glycosylated (mode not specified))
- T1 sequence: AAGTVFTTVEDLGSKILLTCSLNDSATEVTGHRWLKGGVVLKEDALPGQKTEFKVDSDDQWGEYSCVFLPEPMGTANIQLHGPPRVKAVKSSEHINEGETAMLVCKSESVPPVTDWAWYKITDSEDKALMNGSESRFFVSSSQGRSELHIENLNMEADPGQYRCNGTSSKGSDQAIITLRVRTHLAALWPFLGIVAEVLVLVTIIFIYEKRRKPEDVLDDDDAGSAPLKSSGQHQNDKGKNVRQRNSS
- experiment.notes: cell-based or functional assay
endpoint.label: inhibitory rate (%)

                                     binder       endpoint_label  readout_value
0  YKLPGHHHHYRP [HAb18G/CD147 binding/antagonistic peptide (9)]  inhibitory rate (%)           81.2
1  IGWHYYLRTQHS [HAb18G/CD147 binding/antagonistic peptide (5)]  inhibitory rate (%)          -14.8
2  MHKHPHGSQGPT [HAb18G/CD147 binding/antagonistic peptide (8)]  inhibitory rate (%)           68.3
3  YPFHHKHWHRPN [HAb18G/CD147 binding/antagonistic peptide (6)]  inhibitory rate (%)           62.4
4  MTHDPVISLPTT [HAb18G/CD147 binding/antagonistic peptide (1)]  inhibitory rate (%)           78.2
